This listing pairs variants with measured self-cleavage.
B1: Hairpin Ribozyme (parent)
chain: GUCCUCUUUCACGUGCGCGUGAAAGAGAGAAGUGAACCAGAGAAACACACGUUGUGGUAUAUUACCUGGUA

- Variants of: B1
- assay procedure: self-cleavage, relative activity (ratio to wild type); higher = more cleavage; co-transcriptional
Reply with the value as a number alone.

sequence variant	self-cleavage
U14G G29U	0.151

# get_value(readout='self-cleavage', item= G56C C65U )
0.16

Thanks! And G19C U63C ?
0.168

Also C10U U58G ?
0.557

One more variant: G19U G32C
0.137

Ok, now G17C A22C
0.75

Subsequent entry: G32A C65G
0.102

Cool, now U7A G19C
0.711

Can you handle C12A U62C next?
0.0739

Now this one: A26C G27C
0.197
